List of pKi tested on DfrA5 (Escherichia coli).
Give bare numbers, as −log10 of the molar value.

Worked cases, answers included:
| MOLECULE | pKi |
| --- | --- |
| CCc1nc(N)nc(N)c1C#CC(C)c1cc2c(c(-c3ccc(CN)cc3)c1)OCO2 (stereo not shown) | 7.78 |
| CCc1nc(N)nc(N)c1C#CC(C)c1cc(-c2ccc(C(N)=O)cc2)ccc1Cl (stereo not shown) | 7.70 |
| COc1cc(Cc2cnc(N)nc2N)c2c(c1OC)OC(C1CC1)C=C2 (stereo not shown) [Iclaprim, reference compound] | 7.00 |

Attention now shifts to the item below.
Entry under test: CN(Cc1cnc2nc(N)nc(N)c2n1)c1ccc(C(=O)N[C@@H](CCC(=O)O)C(=O)O)cc1 [Methotrexate, reference compound] . Its pKi was 6.24

====

Molecular target: DfrA1 (Escherichia coli, UniProt P00382)
Construct: dfrA1 gene (UniProtKB:A4GRC7) were synthesized and cloned in pET-41a (+) vector; made in house; host or cells: E. coli BL21(DE3)
Sequence (P00382 1-157): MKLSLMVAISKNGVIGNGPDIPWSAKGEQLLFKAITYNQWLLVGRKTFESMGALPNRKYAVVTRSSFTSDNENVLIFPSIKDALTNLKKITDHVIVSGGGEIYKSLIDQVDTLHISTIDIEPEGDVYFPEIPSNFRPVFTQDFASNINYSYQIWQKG
Experiment: biochemical
Format: binding, E. coli
Details: KD, DfrA1 apo
REPORTED_METRIC: Kd (nM)
One number for each entry, in nM.

Entry under test: NC(=O)C1=CN([C@@H]2O[C@H](COP(=O)(O)OP(=O)(O)OC[C@H]3O[C@@H](n4cnc5c(N)ncnc54)[C@H](OP(=O)(O)O)[C@@H]3O)[C@@H](O)[C@H]2O)C=CC1 . Its Kd was 1650

====

biological target: DfrA1 (Escherichia coli); construct: dfrA1 gene (UniProtKB:A4GRC7) were synthesized and cloned in pET-41a (+) vector; made in house; host or cells: E. coli BL21(DE3); assay: biochemical; assay type: binding, E. coli; details: KD, DfrA1 apo, series NADPH KD ± UCP1228
REPORTED_METRIC: pKd
Numbers only, as −log10 of the molar value.

Entry under test: NC(=O)C1=CN([C@@H]2O[C@H](COP(=O)(O)OP(=O)(O)OC[C@H]3O[C@@H](n4cnc5c(N)ncnc54)[C@H](OP(=O)(O)O)[C@@H]3O)[C@@H](O)[C@H]2O)C=CC1 . Its pKd was 5.98

====

molecular target: DfrA5 (Escherichia coli, UniProt P11731); assay: biochemical; assay type: binding, E. coli; details: DfrA5 apo form (Fig. S8)
Sequence (P11731 whole entry): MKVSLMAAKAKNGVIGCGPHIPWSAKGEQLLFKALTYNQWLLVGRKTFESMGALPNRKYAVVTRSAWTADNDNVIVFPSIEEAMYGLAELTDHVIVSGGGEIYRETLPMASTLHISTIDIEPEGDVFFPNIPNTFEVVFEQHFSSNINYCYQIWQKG
REPORTED_METRIC: pKd
Give bare numbers, as −log10 of the molar value.

Entry under test: NC(=O)C1=CN([C@@H]2O[C@H](COP(=O)(O)OP(=O)(O)OC[C@H]3O[C@@H](n4cnc5c(N)ncnc54)[C@H](OP(=O)(O)O)[C@@H]3O)[C@@H](O)[C@H]2O)C=CC1 [NADPH] . Its pKd was 5.16

====

target: DfrA5 (Escherichia coli, UniProt P11731); experiment: biochemical; format: binding, E. coli; settings: DfrA5 preincubated with 100 µM UCP1228, titrant NADPH (Fig. S8)
REPORTED_METRIC: pKd
Answers are plain numbers, as −log10 of the molar value.

Entry under test: NC(=O)C1=CN([C@@H]2O[C@H](COP(=O)(O)OP(=O)(O)OC[C@H]3O[C@@H](n4cnc5c(N)ncnc54)[C@H](OP(=O)(O)O)[C@@H]3O)[C@@H](O)[C@H]2O)C=CC1 . Its pKd was 6.35
